Target: T1, monkey C5-mmh (monkey, UniProt P01031 19-1676 (human entry), limits assumed)
T1 construct: Expressed with a C-terminal myc-myc-hexahistidine tag
T1 chain: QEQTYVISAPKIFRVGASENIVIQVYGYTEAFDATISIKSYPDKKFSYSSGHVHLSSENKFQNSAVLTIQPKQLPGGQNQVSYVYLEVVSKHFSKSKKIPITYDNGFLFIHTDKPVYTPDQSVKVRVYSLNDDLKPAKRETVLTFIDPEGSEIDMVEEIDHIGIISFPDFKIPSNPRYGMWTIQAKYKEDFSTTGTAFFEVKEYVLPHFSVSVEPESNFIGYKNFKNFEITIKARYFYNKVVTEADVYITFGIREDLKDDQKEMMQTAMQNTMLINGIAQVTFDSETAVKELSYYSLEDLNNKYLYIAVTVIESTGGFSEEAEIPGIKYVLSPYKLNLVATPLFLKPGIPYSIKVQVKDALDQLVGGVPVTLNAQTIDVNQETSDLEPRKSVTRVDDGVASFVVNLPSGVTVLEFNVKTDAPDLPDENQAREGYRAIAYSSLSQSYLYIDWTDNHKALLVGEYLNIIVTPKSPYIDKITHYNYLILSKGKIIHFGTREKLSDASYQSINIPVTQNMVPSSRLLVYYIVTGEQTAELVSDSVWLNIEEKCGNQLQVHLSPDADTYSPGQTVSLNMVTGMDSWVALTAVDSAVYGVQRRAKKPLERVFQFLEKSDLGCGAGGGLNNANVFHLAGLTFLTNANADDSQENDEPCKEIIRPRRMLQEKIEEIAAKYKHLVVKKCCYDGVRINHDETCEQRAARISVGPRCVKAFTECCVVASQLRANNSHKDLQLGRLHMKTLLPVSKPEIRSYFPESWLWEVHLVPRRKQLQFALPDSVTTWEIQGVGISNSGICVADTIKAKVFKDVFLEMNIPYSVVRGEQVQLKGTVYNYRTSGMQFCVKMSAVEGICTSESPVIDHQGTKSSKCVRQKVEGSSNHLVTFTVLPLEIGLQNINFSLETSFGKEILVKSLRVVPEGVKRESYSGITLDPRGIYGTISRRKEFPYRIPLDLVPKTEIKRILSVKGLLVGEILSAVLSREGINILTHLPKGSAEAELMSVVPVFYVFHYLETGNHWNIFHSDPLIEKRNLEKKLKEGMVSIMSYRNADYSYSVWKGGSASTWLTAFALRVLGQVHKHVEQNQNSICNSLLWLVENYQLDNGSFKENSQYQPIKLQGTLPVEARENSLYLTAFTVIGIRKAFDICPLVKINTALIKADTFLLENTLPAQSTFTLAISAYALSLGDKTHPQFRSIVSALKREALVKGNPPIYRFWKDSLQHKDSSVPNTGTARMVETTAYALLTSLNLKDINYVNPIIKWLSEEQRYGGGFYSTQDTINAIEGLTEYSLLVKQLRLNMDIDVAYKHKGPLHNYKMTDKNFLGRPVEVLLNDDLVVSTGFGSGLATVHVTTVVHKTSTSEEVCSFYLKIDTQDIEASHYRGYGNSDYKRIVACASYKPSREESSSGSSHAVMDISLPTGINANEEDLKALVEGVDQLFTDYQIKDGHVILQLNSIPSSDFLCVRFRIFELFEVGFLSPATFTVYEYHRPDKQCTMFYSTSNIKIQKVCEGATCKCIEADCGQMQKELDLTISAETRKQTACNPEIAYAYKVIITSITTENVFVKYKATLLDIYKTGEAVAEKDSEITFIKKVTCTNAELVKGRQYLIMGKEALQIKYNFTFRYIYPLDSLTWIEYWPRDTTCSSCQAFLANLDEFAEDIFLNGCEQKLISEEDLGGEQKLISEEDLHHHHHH
Experiment: SPR, mAb captured by anti-hFc, 25C
attribute_measured: koff
The reply should read as a number followed by its unit.

{"binder": "H4H12168P (antibody, human IgG4, V domains shown) VH: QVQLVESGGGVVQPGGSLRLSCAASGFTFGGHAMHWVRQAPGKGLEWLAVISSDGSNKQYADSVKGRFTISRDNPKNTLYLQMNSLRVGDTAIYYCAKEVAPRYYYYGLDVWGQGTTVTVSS VL: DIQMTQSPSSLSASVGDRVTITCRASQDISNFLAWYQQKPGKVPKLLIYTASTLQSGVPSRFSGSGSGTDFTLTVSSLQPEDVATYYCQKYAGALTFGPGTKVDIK", "koff": "0.000114 s⁻¹"}

IN: Give reported koff value for H4H12171P (antibody, human IgG4, V domains shown) VH: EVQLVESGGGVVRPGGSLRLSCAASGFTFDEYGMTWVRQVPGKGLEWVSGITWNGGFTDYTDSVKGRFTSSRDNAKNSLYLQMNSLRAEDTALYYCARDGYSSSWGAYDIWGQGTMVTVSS VL: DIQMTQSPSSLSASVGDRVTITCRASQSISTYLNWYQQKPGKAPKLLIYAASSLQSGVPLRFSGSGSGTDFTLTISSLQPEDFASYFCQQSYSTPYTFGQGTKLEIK
OUT: 0.000226 s⁻¹

IN: Give reported koff value for H4H12166P6 (antibody, human IgG4, V domains shown, human IgG4 Fc with S108P hinge mutation) VH: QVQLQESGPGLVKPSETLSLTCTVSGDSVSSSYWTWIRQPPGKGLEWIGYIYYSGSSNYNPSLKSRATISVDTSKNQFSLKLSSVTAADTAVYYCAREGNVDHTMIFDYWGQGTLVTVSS VL: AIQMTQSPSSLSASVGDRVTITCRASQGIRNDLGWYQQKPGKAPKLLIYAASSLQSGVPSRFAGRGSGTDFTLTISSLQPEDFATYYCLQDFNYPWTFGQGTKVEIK
OUT: 0.00266 s⁻¹

IN: Give reported koff value for H4H12161P (antibody, human IgG4, V domains shown) VH: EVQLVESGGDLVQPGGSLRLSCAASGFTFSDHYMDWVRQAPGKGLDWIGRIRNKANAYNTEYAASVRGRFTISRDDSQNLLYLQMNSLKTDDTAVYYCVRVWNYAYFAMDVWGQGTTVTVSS VL: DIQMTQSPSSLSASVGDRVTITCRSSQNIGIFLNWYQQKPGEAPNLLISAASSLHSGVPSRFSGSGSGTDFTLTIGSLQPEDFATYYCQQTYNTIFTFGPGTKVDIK
OUT: 2.48e-05 s⁻¹

IN: Give reported koff value for H4H12166P10 (antibody, human IgG4, V domains shown, human IgG4 Fc with S108P hinge mutation) VH: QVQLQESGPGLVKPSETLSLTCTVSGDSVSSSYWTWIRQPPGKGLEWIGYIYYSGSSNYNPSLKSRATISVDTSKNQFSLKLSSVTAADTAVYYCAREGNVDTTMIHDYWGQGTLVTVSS VL: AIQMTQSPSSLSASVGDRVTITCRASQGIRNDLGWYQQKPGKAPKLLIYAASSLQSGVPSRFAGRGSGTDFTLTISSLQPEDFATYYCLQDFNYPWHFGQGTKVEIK
OUT: 0.00616 s⁻¹
